TARGET DESC: human FAAH (Homo sapiens, UniProt O00519)
Construct: expressed in transfected cells
Sequence (O00519 whole entry): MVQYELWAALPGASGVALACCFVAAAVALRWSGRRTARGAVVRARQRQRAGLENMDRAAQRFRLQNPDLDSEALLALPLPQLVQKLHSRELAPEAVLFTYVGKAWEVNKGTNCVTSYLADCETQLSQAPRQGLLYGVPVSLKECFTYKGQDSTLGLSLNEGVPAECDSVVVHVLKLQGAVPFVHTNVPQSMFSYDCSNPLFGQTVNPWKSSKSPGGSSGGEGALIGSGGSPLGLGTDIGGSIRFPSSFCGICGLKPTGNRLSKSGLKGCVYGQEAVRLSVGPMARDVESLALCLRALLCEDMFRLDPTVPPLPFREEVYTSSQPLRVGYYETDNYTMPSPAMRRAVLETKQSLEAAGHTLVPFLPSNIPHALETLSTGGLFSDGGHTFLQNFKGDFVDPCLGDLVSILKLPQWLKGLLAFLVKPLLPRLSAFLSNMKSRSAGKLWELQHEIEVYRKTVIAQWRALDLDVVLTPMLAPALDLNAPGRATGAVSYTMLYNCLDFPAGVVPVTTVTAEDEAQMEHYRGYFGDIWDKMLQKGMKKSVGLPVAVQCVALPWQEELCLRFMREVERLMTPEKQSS
METHOD SUMMARY: Assay Method 1: FAAH assay, hydrolysis of 3H-anandamide by homogenate of SK-N-MC cells transfected with human FAAH
Assay type: biochemical
ASSAY SETUP: human FAAH; T84 or transfected SK-N-MC cell homogenate; 3H-AEA tracer 80 nM; rt 1 h; pH 9; read-out: Assay 1 IC50
// thresholds for IC50 classes: lower bin = under 10 nM, middle bin = from 10 nM up to 50 nM, upper bin = 50 nM and over

Class (by measured IC50) for "CN(C)c1ccc(CN2CCC(CCCC(=O)c3ncco3)CC2)cc1"
upper bin

* * *

Below: a set of entries, each annotated with reported pIC50.
TARGET DESC: human FAAH (Homo sapiens)
Construct: expressed in transfected cells
METHOD SUMMARY: Assay Method 1: FAAH assay, hydrolysis of 3H-anandamide by homogenate of SK-N-MC cells transfected with human FAAH
Assay type: biochemical
ASSAY SETUP: human FAAH; T84 or transfected SK-N-MC cell homogenate; 3H-AEA tracer 80 nM; rt 1 h; pH 9; read-out: Assay 1 IC50
pIC50 here is simply -log10 of the concentration when that concentration is written in mol/L.

// worked examples, pIC50 included
RECORD SMILES | QUANTITATIVE RESULT
CC(C)(C)CC(=O)N1CCC(CCCC(=O)c2ncco2)CC1 | 7.05
CCN(CC)c1ccc(CN2CCC(CCCC(=O)c3ncco3)CC2)cc1 | 6.89
Cc1cccc(CN2CCC(CCCC(=O)c3ncco3)CC2)c1 | 7.05
Cc1ccc(CCC(=O)N2CCC(CCCC(=O)c3ncco3)CC2)cc1 | 7.40
O=C(CCCC1CCN(C(=O)COCc2ccccc2)CC1)c1ncco1 | 6.62

Requested read-out: pIC50. Entry: "O=C(CCCC1CCN(Cc2ccccc2)CC1)c1ncc(-c2ccco2)o1"
6.59

Requested read-out: pIC50. Entry: "O=C(CCCC1CCN(Cc2ccc(N3CCCC3)cc2)CC1)c1ncco1"
6.28

Requested read-out: pIC50. Entry: "O=C(CCCC1CCN(Cc2cccc(F)c2F)CC1)c1ncco1"
6.70

Requested read-out: pIC50. Entry: "O=C(CCCC1CCN(Cc2ccc(-n3ccnc3)cc2)CC1)c1ncco1"
7.08

Requested read-out: pIC50. Entry: "O=C(CCCC1CCN(C(=O)C2CCCC2)CC1)c1ncco1"
6.97

* * *

TARGET DESC: rat FAAH (Rattus norvegicus, UniProt P97612)
Sequence (P97612 1-579): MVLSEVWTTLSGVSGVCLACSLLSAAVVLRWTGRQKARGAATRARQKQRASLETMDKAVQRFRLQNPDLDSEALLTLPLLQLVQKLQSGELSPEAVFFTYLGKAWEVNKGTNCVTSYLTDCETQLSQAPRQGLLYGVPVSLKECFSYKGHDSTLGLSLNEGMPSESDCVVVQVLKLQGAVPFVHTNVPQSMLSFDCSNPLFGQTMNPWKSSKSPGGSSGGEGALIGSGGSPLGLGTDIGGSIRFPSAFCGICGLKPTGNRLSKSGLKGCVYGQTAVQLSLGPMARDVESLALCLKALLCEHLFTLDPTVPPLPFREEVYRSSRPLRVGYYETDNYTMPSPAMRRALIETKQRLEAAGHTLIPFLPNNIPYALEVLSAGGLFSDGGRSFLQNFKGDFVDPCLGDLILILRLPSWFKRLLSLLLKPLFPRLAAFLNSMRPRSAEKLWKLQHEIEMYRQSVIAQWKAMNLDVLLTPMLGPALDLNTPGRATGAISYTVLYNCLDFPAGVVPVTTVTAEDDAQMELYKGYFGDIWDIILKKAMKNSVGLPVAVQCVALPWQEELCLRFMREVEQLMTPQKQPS
Where a name gives a salt, the structure may show the parent alone.
Below: a set of entries, each annotated with reported IC50.
Supply the numeric figure in µM, leaving out any unit text.

COMPOUND | UNITS OF MEASURE | IC50
O=C(CCCC1CCN(Cc2ccc(Br)c(Br)c2)CC1)c1ncco1 | µM | 0.095
CC(C)Oc1cccc(CN2CCC(CCCC(=O)c3ncco3)CC2)c1 | µM | 0.009
Cc1cccc(CN2CCC(CCCC(=O)c3ncco3)CC2)c1C | µM | 2.1
O=C(CCCC1CCN(C(=O)OCCOCc2ccccc2)CC1)c1ncco1 | µM | 0.002
O=C(O)c1cccc(-c2cnc(C(=O)CCCC3CCN(Cc4cccc(OC5CCCCC5)c4)CC3)o2)n1 [Example 150, trifluoroacetic acid salt] | µM | 0.007

Requested read-out: IC50. Entry: "CN(C)c1ccc(CN2CCC(CCCC(=O)c3ncco3)CC2)cc1"
3

Requested read-out: IC50. Entry: "O=C(CCCC1CCN(Cc2cccnc2)CC1)c1ncco1"
3

Requested read-out: IC50. Entry: "O=C(CCCC1CCN(Cc2cccc(Cl)c2)CC1)c1ncco1"
0.08

* * *

TARGET DESC: UniProt P97612
# label = Met if IC50 < 0.05 µM else Not met

Please review the entries below; each comes with its answer.
COMPOUND | ASSIGNED CLASS
Cc1cccc(CN2CCC(CCCC(=O)c3ncco3)CC2)c1 [Example 19] | Not met
O=C(CCCC1CCN(S(=O)(=O)c2ccccc2)CC1)c1ncco1 [Example 59] | Not met
COc1ccc(S(=O)(=O)N2CCC(CCCC(=O)c3ncco3)CC2)cc1 [Example 61] | Met
O=C(CCCC1CCN(C(=O)OCc2ccccc2)CC1)c1ncco1 [Example 63] | Met
O=C(CCCC1CCN(Cc2cccc(Br)n2)CC1)c1ncco1 [Example 77] | Not met
O=C(CCCC1CCN(C(=O)C2CCCC2)CC1)c1ncco1 [Example 31] | Not met

Consider the compound CCOC(=O)N1CCC(CCCC(=O)c2ncco2)CC1 [Example 64] . Is its IC50 strictly less than 0.05 µM?
Met

Consider the compound O=C(CCCC1CCN(Cc2cccc(Oc3ccccc3)c2)CC1)c1ncco1 [Example 2] . Is its IC50 strictly less than 0.05 µM?
Met

Consider the compound O=C(CCCC1CCN(Cc2ccc(Cl)nc2)CC1)c1ncco1 [Example 75] . Is its IC50 strictly less than 0.05 µM?
Not met

* * *

TARGET DESC: human FAAH (Homo sapiens)
Construct: expressed in transfected cells
METHOD SUMMARY: Assay Method 1: FAAH assay, hydrolysis of 3H-anandamide by homogenate of SK-N-MC cells transfected with human FAAH
Type: biochemical
ASSAY SETUP: human FAAH; T84 or transfected SK-N-MC cell homogenate; 3H-AEA tracer 80 nM; rt 1 h; pH 9; read-out: Assay 1 IC50
Below: a set of entries, each annotated with reported pIC50.
pIC50 here is simply -log10 of the concentration when that concentration is written in mol/L.

// worked examples, pIC50 included
RECORD SMILES | QUANTITATIVE RESULT
O=C(CCCC1CCN(C(=O)CC2CCCCC2)CC1)c1ncco1 | 7.00
O=C(CCCC1CCN(Cc2cccc(F)c2)CC1)c1ncco1 | 7.00

Here's the next entry for you.
Requested read-out: pIC50. Entry: "O=C(CCCC1CCN(Cc2cncc(Br)c2)CC1)c1ncco1"
7.01

* * *

TARGET DESC: rat FAAH (Rattus norvegicus)
Sequence (P97612 1-579): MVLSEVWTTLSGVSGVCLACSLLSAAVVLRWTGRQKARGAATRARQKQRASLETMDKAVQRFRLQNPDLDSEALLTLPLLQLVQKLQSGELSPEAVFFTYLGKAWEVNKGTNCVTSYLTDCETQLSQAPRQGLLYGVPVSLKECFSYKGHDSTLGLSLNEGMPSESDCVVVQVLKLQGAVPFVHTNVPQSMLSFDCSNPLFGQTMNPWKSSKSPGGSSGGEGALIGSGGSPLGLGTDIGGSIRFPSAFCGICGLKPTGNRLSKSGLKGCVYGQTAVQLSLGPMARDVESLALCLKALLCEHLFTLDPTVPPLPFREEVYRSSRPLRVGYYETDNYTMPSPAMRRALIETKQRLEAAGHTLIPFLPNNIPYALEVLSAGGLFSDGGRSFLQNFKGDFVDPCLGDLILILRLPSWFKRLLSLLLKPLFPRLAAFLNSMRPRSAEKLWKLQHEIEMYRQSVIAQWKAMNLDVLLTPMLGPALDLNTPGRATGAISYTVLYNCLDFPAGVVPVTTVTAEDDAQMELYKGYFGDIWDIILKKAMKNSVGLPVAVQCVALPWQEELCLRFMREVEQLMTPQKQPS
Below: a set of entries, each annotated with reported IC50.
Supply the numeric figure in µM, leaving out any unit text.

// worked examples, IC50 included
MOLECULE | UNITS OF MEASURE | IC50
O=C(CCCC1CCN(Cc2ccc(N3CCCC3)cc2)CC1)c1ncco1 [Example 102] | µM | 3
CC(C)CC(=O)N1CCC(CCCC(=O)c2ncco2)CC1 [Example 26] | µM | 0.9
Cc1ccc(CCC(=O)N2CCC(CCCC(=O)c3ncco3)CC2)cc1 [Example 44] | µM | 0.01

Here's the next entry for you.
Requested read-out: IC50. Entry: O=C(CCCC1CCN(C(=O)CC2CCCCC2)CC1)c1ncco1 [Example 49]
0.35

Data origin, for the record: patent US20090111778A1
